Tested on: U251 CNS
Assay: NCI tumour cell line growth inhibition, 48 h
Where a SMILES comes first, the peptide text is derived from it. The star is where a group is joined. Boc = CC(C)(C)OC(=O)*
Provide the reported TGI of each item.

Prompt line: Hi! What's the reported TGI for N#C/C(=C/c1ccsc1)C(=O)c1ccccc1 on U251 CNS?
Response line: > 100 µM

Prompt line: And the next one, NCC(=O)NS(=O)(=O)OC[C@H]1O[C@@H](n2cnc3c(N)ncnc32)[C@H](O)[C@@H]1O ?
Response line: 1.98 µM

Prompt line: Follow-up item: Nc1cc(CO)cc(Nc2nc3ccc(Cl)cc3c3[nH]c4ccccc4c23)c1
Response line: 23.9 µM

Prompt line: And the next one, COC(=O)CNC(=O)C(Cc1ccccc1)NC(=O)C(CCSC)NC(=O)C(Cc1ccc(O)cc1)NC(=O)OC(C)(C)C (centres undefined) (Boc-YMFG-OMe; configuration not given here) ?
Response line: > 100 µM

Prompt line: Field entry: CC(C)CC(=O)[O-].CC(C)CC(=O)[O-].N.N.N.N.[Co+3].[O-][Cl+3]([O-])([O-])[O-]
Response line: > 100 µM

Prompt line: Cool, now Cc1nc2cccc([N+](=O)[O-])c2c(NCCCN(C)C)c1C
Response line: > 100 µM

Prompt line: Quick one: Cc1nnc(Nc2ccccc2)o1
Response line: > 100 µM

Prompt line: Let us now turn to O=C1OCc2c1cc1ccc(O)c(OC3OC(CO)C(O)C(O)C3O)c1c2-c1ccc2c(c1)OCO2 (centres undefined)
Response line: > 100 µM

Prompt line: Another: Cc1nc2c(nc1Cl)nc(Oc1ccc(Cl)cc1)c1ccccc12
Response line: 40.6 µM

Prompt line: Would you mind doing COC(=O)C[C@H]1CCC2(OCCO2)[C@]1(C)C(=O)OC as well?
Response line: > 100 µM

Prompt line: Next entry: CC(O[Si](c1ccccc1)(c1ccccc1)C(C)(C)C)[C@H](NC(=O)OC(C)(C)C)C(=O)O[Si](c1ccccc1)(c1ccccc1)C(C)(C)C (some centres undefined)
Response line: 31.7 µM

Prompt line: Note, next up: COc1ccccc1C1C(C(=O)Nc2ccccc2)=C(C)NC(C)=C1C(=O)Nc1ccccc1
Response line: > 100 µM

Prompt line: Now try CC1(C)CC(/C=C2/OC(=O)c3ccccc32)=C(C#N)C(=O)O1 .
Response line: > 100 µM

Prompt line: Request: OCc1ccc2[n+](c1)CCC1c3ccccc3NC21 (centres undefined)
Response line: > 300 µM

----------
System: HCT-116 colon
Assay: NCI tumour cell line growth inhibition, 48 h
Would you mind telling me the reported TGI of each entry?

Prompt line: Give the measured TGI of OC1C2[C@@H](O)CCCN2C[C@@H](O)[C@H]1O (some centres undefined) .
Response line: > 100 µM

Prompt line: What about O=C1NNC=Nc2ccc(cc2)S(=O)(=O)c2ccc(cc2)N=CNNC1=O ?
Response line: > 100 µM

Prompt line: Queued: OCCC1(O)CCC(O)CC1 (centres undefined)
Response line: > 100 µM

Prompt line: Repeat for the following molecule: N#C/C(=C/c1ccsc1)C(=O)c1ccccc1
Response line: > 100 µM

Prompt line: Same lookup for COc1ccc(N2C(=O)C3c4[nH]c5ccc(OCc6ccccc6)cc5c4C4CCC(C(C)(C)C)CC4C3C2=O)cc1 (centres undefined) , please.
Response line: > 100 µM

Prompt line: Query O=C(CC(=O)n1nc(-c2ccccc2)c(N=Nc2ccccc2C(=O)O)c1-c1ccccc1)Nc1ccc(Cl)cc1 next
Response line: > 100 µM

Prompt line: And for CC(C)c1ccc2[nH]c(O)c(-c3[nH]c4ccccc4c3N=O)c2c1 ?
Response line: 14 µM

Prompt line: Same for COC(=O)C[C@H]1CCC2(OCCO2)[C@]1(C)C(=O)OC
Response line: > 100 µM

Prompt line: For O=c1[nH]n2c(=O)cc[nH]c2c1-c1nnns1 then?
Response line: > 100 µM

Prompt line: And CC(C)=CCOC(=O)C(C)=[N+]=[N-] ?
Response line: > 100 µM

Prompt line: Similarly, NCC1CCN(c2nc3ccccc3c3c2CCCC3)CC1 ?
Response line: 9.91 µM

Prompt line: Next molecule: CCCCN1C(=O)CC2[C@@H]3CCc4cc(OC(C)=O)ccc4C3CC[C@]2(C)C1=O (some centres undefined)
Response line: > 10 µM

Prompt line: Also CC1(C)OCC(COC(=O)C=[N+]=[N-])O1 (centres undefined) ?
Response line: > 100 µM

Prompt line: Input COc1ccccc1C1C(C(=O)Nc2ccccc2)=C(C)NC(C)=C1C(=O)Nc1ccccc1
Response line: > 100 µM

Prompt line: Query Cn1c(N2NC(=O)C(N=Nc3ccc(S(N)(=O)=O)cc3)C2=O)nc(-c2ccco2)c(C#N)c1=O (centres undefined) next
Response line: > 50 µM

Prompt line: Follow-up item: Nc1nc2cc3nc(N)c(N)nc3cc2nc1N
Response line: > 100 µM

Prompt line: Now this one: CCN1CC2=C(NC(=S)NC2c2ccc(Cl)cc2)/C(=C/c2ccc(Cl)cc2)C1 (centres undefined)
Response line: > 100 µM

Prompt line: Again, but for O=C1c2c(c3c4ccccc4n(CCCCCCBr)c3c3[nH]c4ccccc4c23)C(=O)N1O
Response line: 10.8 µM

Prompt line: // same read-out, input: COc1cc(/C=C2/C(=O)N(C(=O)c3ccccc3O)N=C2C)cc(OC)c1OC
Response line: > 29 µM

Prompt line: Then this molecule: Cc1nnc2n1N=C(c1cc(F)c(Cl)cc1Cl)/C(=C/c1ccc(Cl)cc1)S2
Response line: 21 µM

Prompt line: Entry COc1ccc(C2CC(c3c(O)ccc4ccccc34)=NN2c2ccc([N+](=O)[O-])cc2[N+](=O)[O-])cc1OC (centres undefined) please
Response line: > 100 µM

Prompt line: Please do the same for CC(C)CC(=O)[O-].CC(C)CC(=O)[O-].N.N.N.N.[Co+3].[O-][Cl+3]([O-])([O-])[O-] as well.
Response line: > 100 µM

Prompt line: Moving on to CCCCC/C(C=C(C#N)C#N)=C/c1ccccc1
Response line: 4.46 µM

Prompt line: Follow-up entry: O=c1oc2ccc(F)cc2c(=O)n1-c1ccc(F)cc1F
Response line: 9.6 µM
